Target: T1, RPtag(small) Nd2, Cd4 (Thermoanaerobacter tengcongensis)
T1 peptide: RhodamineB-KIPNFIPAELKLITK
Assay: fluorescence anisotropy; 2 nM rhodamine Nd2Cd4, unlabeled RPtag large variant titrated; bar of Ka = 1/Kd, right axis
No end group written: not given here. *: point of attachment. RhodamineB = CCN(CC)c1ccc2c(-c3ccccc3C(=O)*)c3ccc(=[N+](CC)CC)cc-3oc2c1
parameter measured: binding result

* m270k (designed binder, also called RPtag(large) M270K) single chain: MGSSCHHHHHHSQDPNSSSMKEGKTIGLVISTLNNPFFVTLKNGAEEKAKELGYKIIVEDSQNDSSKELSNVEDLIQQKVDVLLINPVDSDAVVTAIKEANSKNIPVITIDRSANGGDVVSHIASDNVKGGEMAAEFIAKALKGKGNVVELEGIPGASAARDRGKGFDEAIAKYPDIKIVAKQAADFDRSKGLSVMENILQAQPKIDAVFAQNDEMALGAIKAIEAANRQGIIVVGFDGTEDALKAIKEGKMAATIAQQPALMGSLGVEKADKYLK | binds
* NativeRPtag(large)_with_Tags_and_Cys (other, Unlabeled in anisotropy assays; coupled through the engineered N-terminal Cys to SulfoLink agarose or maleimide plates in column, pull-down and ELISA assays) MGSSCHHHHHHSQDPNSSSMKEGKTIGLVISTLNNPFFVTLKNGAEEKAKELGYKIIVEDSQNDSSKELSNVEDLIQQKVDVLLINPVDSDAVVTAIKEANSKNIPVITIDRSANGGDVVSHIASDNVKGGEMAAEFIAKALKGKGNVVELEGIPGASAARDRGKGFDEAIAKYPDIKIVAKQAADFDRSKGLSVMENILQAQPKIDAVFAQNDEMALGAIKAIEAANRQGIIVVGFDGTEDALKAIKEGKMAATIAQQPALMGSLGVEMADKYLK | binds
